target: human TRPM8 (Homo sapiens, UniProt Q7Z2W7); construct: expressed in transfected cells; host or cells: Chinese hamster ovary (CHO) cells, T-REx tetracycline-inducible system, co-transfected with aequorin; assay: Luminescence readout assay for measuring intracellular calcium, icilin activation; type: cell-based; conditions: CHO cells expressing human TRPM8, aequorin luminescence, 1 μM icilin activation; read-out: hTRPM8 IC50
Sequence (Q7Z2W7 whole entry): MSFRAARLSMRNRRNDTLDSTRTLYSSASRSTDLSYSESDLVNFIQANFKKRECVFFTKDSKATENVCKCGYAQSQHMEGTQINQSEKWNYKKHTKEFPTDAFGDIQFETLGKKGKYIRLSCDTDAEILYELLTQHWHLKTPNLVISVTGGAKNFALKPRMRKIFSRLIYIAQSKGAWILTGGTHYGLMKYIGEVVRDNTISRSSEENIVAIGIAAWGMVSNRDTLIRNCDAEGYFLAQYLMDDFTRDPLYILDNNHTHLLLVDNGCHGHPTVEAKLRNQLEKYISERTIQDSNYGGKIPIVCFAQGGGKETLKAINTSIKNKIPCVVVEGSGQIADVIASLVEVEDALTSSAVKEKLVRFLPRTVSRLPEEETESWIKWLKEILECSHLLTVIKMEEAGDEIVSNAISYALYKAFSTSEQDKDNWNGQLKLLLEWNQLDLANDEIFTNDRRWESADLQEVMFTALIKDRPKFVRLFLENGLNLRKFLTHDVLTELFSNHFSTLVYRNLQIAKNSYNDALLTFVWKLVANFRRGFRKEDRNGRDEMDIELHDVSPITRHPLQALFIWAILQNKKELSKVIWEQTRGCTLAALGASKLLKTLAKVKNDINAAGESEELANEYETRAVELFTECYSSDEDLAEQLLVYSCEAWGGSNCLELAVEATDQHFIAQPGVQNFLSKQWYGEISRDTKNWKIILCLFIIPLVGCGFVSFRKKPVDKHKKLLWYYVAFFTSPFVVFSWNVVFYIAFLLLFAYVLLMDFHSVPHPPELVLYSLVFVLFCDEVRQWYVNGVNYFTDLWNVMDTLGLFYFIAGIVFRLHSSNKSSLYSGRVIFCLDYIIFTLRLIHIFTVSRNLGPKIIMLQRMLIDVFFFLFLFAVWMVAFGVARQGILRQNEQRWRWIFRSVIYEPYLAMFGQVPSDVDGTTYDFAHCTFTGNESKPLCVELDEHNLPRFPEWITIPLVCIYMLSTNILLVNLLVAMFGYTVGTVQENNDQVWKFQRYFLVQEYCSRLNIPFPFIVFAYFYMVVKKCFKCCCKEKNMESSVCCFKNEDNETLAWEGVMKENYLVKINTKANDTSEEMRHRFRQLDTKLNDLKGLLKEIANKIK
reported_metric: IC50 (nM)

Worked cases, answers included:
O=C(N[C@@H](c1ccc(C(F)(F)F)cc1)c1ncccc1C(F)(F)F)c1ccc(Br)cn1 [Example 205]: 140
O=C(N[C@@H](c1ccc(C(F)(F)F)cc1)c1ncccc1C(F)(F)F)C1CCOC1 (stereo partly shown) [Example 225]: 487

[a] N#Cc1ccccc1C(=O)N[C@@H](c1ccc(C(F)(F)F)cc1)c1ncccc1C(F)(F)F [Example 197]
[b] Cc1ccc([C@H](NC(=O)c2ccc(=O)n(C)c2)c2ncccc2F)cc1F [Example 335]
Field: lower recorded IC50 (choose a or b ) // return label of chosen record
a

----------
biological target: human TRPM8 (Homo sapiens, UniProt Q7Z2W7); construct: expressed in transfected cells; host or cells: Chinese hamster ovary (CHO) cells, T-REx tetracycline-inducible system, co-transfected with aequorin; assay: Luminescence readout assay for measuring intracellular calcium, icilin activation; type: cell-based; settings: CHO cells expressing human TRPM8, aequorin luminescence, 1 μM icilin activation; read-out: hTRPM8 IC50
reported_metric: IC50 (nM)

Worked cases, answers included:
O=C(N[C@@H](c1ccc(C(F)(F)F)cc1)c1ncccc1C(F)(F)F)c1ccc2c(Cl)ccnc2c1 [Example 110, 2,2,2-trifluoroacetate]: 64.4
CC(O)c1ccc([C@H](NC(=O)c2ccc3cccnc3c2)c2ncccc2C(F)(F)F)cc1 (stereo partly shown): 3290
Cn1cnc2cc(C(=O)N[C@@H](c3ccc(C(F)(F)F)cc3)c3ncccc3F)ccc21: 35.4

[P] O=C(N[C@@H](c1ccc(OC(F)(F)F)c(F)c1)c1ncccc1F)c1c[nH]c(=O)c(Cl)c1
[Q] Nc1n[nH]c(C(=O)N[C@@H](c2ccc(C(F)(F)F)cc2)c2ncccc2C(F)(F)F)n1
Field: lower recorded IC50 (choose P or Q ) // return label of chosen record
P
(P: 12.8 nM, Q: 2210 nM)

[A] O=C(O)COc1ccc(C(=O)N[C@@H](c2ccc(C(F)(F)F)cc2)c2ncccc2F)nc1
[B] Cc1cc(F)cc([C@H](NC(=O)c2ccc(=O)[nH]c2)c2ncccc2F)c1
Field: lower recorded IC50 (choose A or B ) // return label of chosen record
B
(B: 644 nM, A: 1810 nM)

[A] COc1ncccc1C(=O)N[C@@H](c1ccc(C(F)(F)F)cc1)c1ncccc1C(F)(F)F
[B] Cc1ccc([C@H](NC(=O)c2ccc(=O)[nH]c2)c2ncccc2F)cc1C
[C] O=C(N[C@@H](c1cnc2cccc(Cl)c2c1)c1ncccc1C(F)(F)F)c1ccc2cccnc2c1
Exam item: list the entries in increasing order of IC50. State the ranking by listing the labels in the requested order.
A, C, B
(A: 32.4 nM, C: 146 nM, B: 245 nM)

----------
target: human TRPM8 (Homo sapiens, UniProt Q7Z2W7); construct: expressed in transfected cells; host or cells: Chinese hamster ovary (CHO) cells, T-REx tetracycline-inducible system, co-transfected with aequorin; assay: Luminescence readout assay for measuring intracellular calcium, icilin activation; type: cell-based; settings: CHO cells expressing human TRPM8, aequorin luminescence, 1 μM icilin activation; read-out: hTRPM8 IC50
pIC50: −log10 of the molar value.
reported_metric: pIC50

Worked cases, answers included:
Cc1ccc(C(=O)N[C@@H](c2ccc(C(F)(F)F)cc2)c2ncccc2C(F)(F)F)cn1: 7.87
CCNc1ccc(C(=O)N[C@@H](c2ccc(C(F)(F)F)cc2)c2ncccc2C(F)(F)F)cn1: 6.88
CC#Cc1cccnc1[C@@H](NC(=O)c1ccc(OC)cc1)c1ccc(C(F)(F)F)cc1 [Example 95, 2,2,2-trifluoroacetate]: 7.24
O=C(N[C@@H](c1ccc(OC(F)(F)F)c(F)c1)c1ncccc1F)c1ccc2oc(=O)[nH]c2n1: 7.98
O=C(N[C@@H](c1ccc2ccccc2c1)c1ncccc1C(F)(F)F)c1ccc2cccnc2c1: 6.93
O=C(N[C@@H](c1ccc(Cl)c(Cl)c1)c1ncccc1C(F)(F)F)c1ccc2cccnc2c1: 7.69

[I] O=C(N[C@@H](c1ccc(C(F)(F)F)cc1)c1ncccc1C(F)(F)F)c1cccc(C(=O)c2ccccc2)c1 [Example 246, 2,2,2-trifluoroacetate]
[II] O=C(N[C@@H](c1ccc(C(F)(F)F)cc1)c1ncccc1C(F)(F)F)c1cn[nH]c1
[III] Cc1ncoc1C(=O)N[C@@H](c1ccc(C(F)(F)F)cc1)c1ncccc1C(F)(F)F
[IV] COCCC(=O)N[C@@H](c1ccc(C(F)(F)F)cc1)c1ncccc1C(F)(F)F
Exam item: list the entries in increasing order of pIC50. State the ranking by listing the labels in the requested order.
IV, I, II, III
(IV: 5.85, I: 6.68, II: 7.06, III: 7.48)

----------
target: human TRPM8 (Homo sapiens, UniProt Q7Z2W7); construct: expressed in transfected cells; host or cells: Chinese hamster ovary (CHO) cells, T-REx tetracycline-inducible system, co-transfected with aequorin; test: Luminescence readout assay for measuring intracellular calcium, icilin activation; type: cell-based; conditions: CHO cells expressing human TRPM8, aequorin luminescence, 1 μM icilin activation; read-out: hTRPM8 IC50
reported_metric: IC50 (nM)

COc1ncccc1C(=O)N[C@@H](c1ccc(C(F)(F)F)cc1)c1ncccc1F: 20.1

[1] O=C(Cn1ccnc1)N[C@@H](c1ccc(C(F)(F)F)cc1)c1ncccc1C(F)(F)F [Example 161, 2,2,2-trifluoroacetate]
[2] O=C(N[C@@H](c1ccc(OC(F)(F)F)c(F)c1)c1ncccc1F)c1c[nH]c(=O)cn1
[3] CC(C)(O)c1ccc(C(=O)N[C@@H](c2ccc(C(F)(F)F)cc2)c2ncccc2C(F)(F)F)cc1
Exam item: list the entries in increasing order of IC50. State the ranking by listing the labels in the requested order.
2, 3, 1

----------
biological target: human TRPM8 (Homo sapiens, UniProt Q7Z2W7); construct: expressed in transfected cells; host or cells: Chinese hamster ovary (CHO) cells, T-REx tetracycline-inducible system, co-transfected with aequorin; assay: Luminescence readout assay for measuring intracellular calcium, icilin activation; type: cell-based; conditions: CHO cells expressing human TRPM8, aequorin luminescence, 1 μM icilin activation; read-out: hTRPM8 IC50
pIC50: −log10 of the molar value.
reported_metric: pIC50

O=C(N[C@@H](c1ccc(C(F)(F)F)cc1)c1ncccc1F)c1c[nH]c2ncccc12: 7.64

[P] O=C(N[C@@H](c1ccc(C(F)(F)F)cc1)c1ncccc1C(F)(F)F)c1cccc(=O)[nH]1
[Q] O=C(NC(c1ccc(C(F)(F)F)cc1)c1ncccc1F)c1ccc2nccnc2c1 (stereo not shown)
[R] Cn1ccnc1C(=O)N[C@@H](c1ccc(OC(F)(F)F)c(F)c1)c1ncccc1F [Example 387, 2,2,2-trifluoroacetate]
# sort list by recorded pIC50, greatest to least State the ranking by listing the labels in the requested order.
Q, P, R

----------
target: human TRPM8 (Homo sapiens); construct: expressed in transfected cells; host or cells: Chinese hamster ovary (CHO) cells, T-REx tetracycline-inducible system, co-transfected with aequorin; assay: Luminescence readout assay for measuring intracellular calcium, icilin activation; assay type: cell-based; details: CHO cells expressing human TRPM8, aequorin luminescence, 1 μM icilin activation; read-out: hTRPM8 IC50
pIC50: −log10 of the molar value.
reported_metric: pIC50

Worked cases, answers included:
Cc1ccc([C@H](NC(=O)c2ccc(=O)[nH]c2)c2ncccc2F)cc1F [Example 334]: 6.99
CS(=O)(=O)c1ccc(C(=O)N[C@@H](c2ccc(C(F)(F)F)cc2)c2ncccc2F)cc1 [Example 217]: 6.83
O=C(N[C@@H](c1ccc(F)cc1)c1ncccc1F)c1ccc(=O)[nH]c1 [Example 340]: 6.09
O=C(O)c1ccc(C(=O)N[C@@H](c2ccc(C(F)(F)F)cc2)c2ncccc2C(F)(F)F)cc1 [Example 283]: 7.66
O=C(N[C@@H](c1ccc(C(F)(F)F)cc1)c1ncccc1F)c1ccc2[nH]c(=O)oc2c1 [Example 78]: 7.83
Cc1cccnc1[C@@H](NC(=O)c1ccc(-c2nc(=O)o[nH]2)cc1)c1ccc(C(F)(F)F)cc1 [Example 323]: 7.44

[P] O=C(N[C@@H](c1ccc(C(F)(F)F)cc1)c1ncccc1F)c1ccc(O)cn1 [Example 173]
[Q] O=C(N[C@@H](c1ccc(C(F)(F)F)cc1)c1ncccc1C(F)(F)F)c1cc[nH]c(=O)c1 [Example 44]
Field: lower recorded pIC50 (choose P or Q ) // return label of chosen record
Q

[a] Cn1cc(C(=O)N[C@@H](c2ccc(OC(F)(F)F)c(F)c2)c2ncccc2F)ccc1=O [Example 103]
[b] O=C(N[C@@H](c1ccc(C(F)(F)F)cc1)c1ncccc1C(F)(F)F)c1ccc2nccc(Cl)c2c1 [Example 116, 2,2,2-trifluoroacetate]
Field: lower recorded pIC50 (choose a or b ) // return label of chosen record
b
